system_tested: Akt
experimental_protocol: Z'-LYTE fluorescence-based coupled-enzyme kinase assay
parameter: IC50 (nM)
Number only, in nM; omit the unit.

Hello, I am looking for reported IC50 with Akt for Cc1ccc(C)c2c1CC(=Cc1ccc(C(C)C)cc1)C2=O . Could you help?
148
